- Experimental target: T1, mouse big-ET-1 (SEQ ID NO:437) (Mus musculus, UniProt P22387)
- T1 sequence (P22387 53-91 limits assumed): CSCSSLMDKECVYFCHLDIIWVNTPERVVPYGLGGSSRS
- Protocol notes: Surface plasmon resonance (Biacore) binding, mAb capture format, 37° C.
- Test parameters: analyte mouse big-ET-1, mAb capture
This listing pairs molecules with measured kd.
Endpoint: kd (s⁻¹)

molecule="H4H6345P: anti-big-ET-1 antibody, human IgG4 Fc; HCVR/LCVR SEQ ID NO: 354/362 (antibody, V domains shown, human IgG4 Fc) VH: EVQLVESGGGLVQPGGSLRLSCAASGFIFSSYAMTWVRQAPGKGLEWVSAISGSGVSTYYADSVKGRFTISRDNSKNTLYLQMNSLRIEDTAVYYCGKARTGTHAFDIWGQGTMVTVSS VL: DIQMTQSPSTLSASVGDRVTITCRASQSISRWLAWYQQKPGKAPKLLIYKASSLETGVPSRFSGSGSGTEFTLTISSLQPDDFGTYYCQQYNSYSSFGPGTKVDIK" experimental_result=0.0974
molecule="H4H6329P: anti-big-ET-1 antibody, human IgG4 Fc; HCVR/LCVR SEQ ID NO: 194/202 (antibody, V domains shown, human IgG4 Fc) VH: QVQLVESGGGVVQPGRSLRLSCAASGFTFGSYGMHWVRQAPGKGLEWVAVIWYDGSDEYYTDSVKGRFTVSRDNSKYTLYLQMNSLRADDTAVYYCARDGYRTRGNYFDYWGQGTLVTVSS VL: DVVMTQSPLSLPVALGQPASISCRSSQSLVYSDGNTYLNWFQQRPGQSPRRLIYKVSNRDSGVPDRFGGSGSGTDFTLKISRVEAEDVGLYYCMQGTHWPPTFGGGTKVEIK" experimental_result=0.000223
molecule="H4H6330P: anti-big-ET-1 antibody, human IgG4 Fc; HCVR/LCVR SEQ ID NO: 210/218 (antibody, V domains shown, human IgG4 Fc) VH: EVQLVESGGGLVQPGGSLRLSCAASGFTFSNYAMSWVRQAPGKGLEWVSAVSGSGVGTYYADSVKGRFTISRDNSKNTLYLQMKSLSAEDTALYYCTKTLGGTHAFDIWGQGTMVTVSS VL: DIQMTQSPSTLSASVGDRVTITCRASQSISRWLAWYQQKPGKAPKLLIYKASSLESGVPSRFSGSGSGTEFTVTINSLQPDDFATYYCQQYNSYSSFGQGTKLEIK" experimental_result=0.072
molecule="H4H6323P: anti-big-ET-1 antibody, human IgG4 Fc; HCVR/LCVR SEQ ID NO: 146/154 (antibody, V domains shown, human IgG4 Fc) VH: QITLKESGPPLVKPTQTLTLTCTFSGFSLNTNGMGVGWIRQPPGKALEWLTLIYWNDDKRYSPSLKTRLTITKDTSKNQVVLTMTNMDPVDTATYYCARFGSGTYWGQGTLVTVSS VL: DIVMTQSPLSLPVTPGEPASISCRSSQSLLHSYGYNFLDWFLQKPGQSPQLLIYLGSHRASGVPDRFSGSGSGTDFTLKISRVEAEDVGVYYCMQALQTPLTFGGGTKVEIK" experimental_result=0.0192
molecule="H4H6353P: anti-big-ET-1 antibody, human IgG4 Fc; HCVR/LCVR SEQ ID NO: 386/394 (antibody, V domains shown, human IgG4 Fc) VH: EVQLVESGGGLVKPGGSLRLSCAASGFSFNYAWMSWVRQAPGKGLEWIGRIKSKINGGTTDYTAPVKGRFTISRDDSKNTLYLQMNSLKTEDTAVYYCRGDEDFWGQGTLVTVSS VL: DVVMTQSPLSLPVTLGQPASISCRSSQSLVYSDGFTYLNWFRQRPGQSPRRLIYKVSNRDSGVPDRFSGSGSGTDFTLRISRVEAEDVGIYYCMQGTHWPYTFGQGTKLEIK" experimental_result=0.00236
